tested on: U2OS; test: Incucyte cell viability with U2OS; type: toxicity, cell-based; conditions: human, 24 h, 10 µM, compound concentration 10 uM, replicate number 2, timepoint 24 hours; further: filed as whole numbers so only -1 and 0 and 1 occur
Observable: Growth Rate

Please give the measured Growth Rate for this molecule: CN1CCC(=C2c3ccccc3CC(=O)c3sccc32)CC1.O=C(O)/C=C/C(=O)O [KETOTIFEN FUMARATE]
0

Now try CC(C)(C(=O)O)c1ccc(C(O)CCCN2CCC(C(O)(c3ccccc3)c3ccccc3)CC2)cc1.Cl (stereo not drawn) [FEXOFENADINE HYDROCHLORIDE] .
0

Now try `COCC(=O)NC/C=C/c1ccc2ncnc(Nc3ccc(Oc4ccc(C)nc4)c(C)c3)c2c1` .
0

Now try `CCCc1c(OCCCOc2ccc(OCC(=O)O)cc2)ccc(C(C)=O)c1O` .
1

Now try `Cc1cn(-c2cc(NC(=O)c3ccc(C)c(Nc4nccc(-c5cccnc5)n4)c3)cc(C(F)(F)F)c2)cn1` .
1

Now try `CC(C)NC(=O)c1ccc(C#Cc2ccncc2)cn1` .
1

Now try O=S(=O)(NC1CCC(c2cc(F)ccc2F)(S(=O)(=O)c2ccc(Cl)cc2)CC1)C(F)(F)F (stereo not drawn) .
0

Now try `Cc1c(C(=O)O)cc(-c2ccc(C3CCNCC3)cc2)c2ccc(-c3ccc(C(F)(F)F)cc3)cc12.Cl` .
1

Values were extracted from ChEMBL document CHEMBL4689842.
